- Tested on: 885724-159-R-J1-PDC complex spheroid viability;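 also: spheroids exposed to compounds for 7 days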
- experimental details: Anticancer human tumor 885724-159-R-J1-PDC patient-derived pancreatic adenocarcinoma cell line growth inhibition [POLQ]
- condition context: second compound 0.1 µM; first compound 0.01 µM; stronger effect = lower value
What viability, T/C was measured for each of the following?

Please tell me: viability, T/C of Cn1ncnc1[C@H]1c2n[nH]c(=O)c3cc(F)cc(c23)N[C@@H]1c1ccc(F)cc1 + Cc1cccc(N(C)C(=O)C2C(O)CCN2c2nc(C)cc(C(F)(F)F)c2C#N)c1 , system 885724-159-R-J1-PDC complex spheroid viability?;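 also: spheroids exposed to compounds for 7 days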
91.7%

# query: viability, T/C | item Cn1ncnc1[C@H]1c2n[nH]c(=O)c3cc(F)cc(c23)N[C@@H]1c1ccc(F)cc1 + Nc1ccc(C#CCN(C(=O)Cc2ncc(C(F)(F)F)cc2C(F)(F)F)c2ccc(F)cc2)nn1 | system: 885724-159-R-J1-PDC complex spheroid viability;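 also: spheroids exposed to compounds for 7 days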
88.1%

Which measured viability, T/C belongs to CCc1c2c(nc3ccc(O)cc13)-c1cc3c(c(=O)n1C2)COC(=O)[C@]3(O)CC + Nc1ccc(C#CCN(C(=O)Cc2ncc(C(F)(F)F)cc2C(F)(F)F)c2ccc(F)cc2)nn1 , tested on 885724-159-R-J1-PDC complex spheroid viability?;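 also: spheroids exposed to compounds for 7 days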
63.5%

Return viability, T/C measured with 885724-159-R-J1-PDC complex spheroid viability given this compound: COc1cccc(OCCCN)c1-c1cc(Nc2cnc(C#N)cn2)n[nH]1 + COC1C(OC(N)=O)C(O)C(Oc2ccc3c(O)c(NC(=O)c4ccc(O)c(CC=C(C)C)c4)c(=O)oc3c2C)OC1(C)C
46.1%

Requested read-out viability, T/C, target or system 885724-159-R-J1-PDC complex spheroid viability, entry Cn1ncnc1[C@H]1c2n[nH]c(=O)c3cc(F)cc(c23)N[C@@H]1c1ccc(F)cc1 + COC1C(OC(N)=O)C(O)C(Oc2ccc3c(O)c(NC(=O)c4ccc(O)c(CC=C(C)C)c4)c(=O)oc3c2C)OC1(C)C;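 also: spheroids exposed to compounds for 7 days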
93.6%

The values you see were collected from PubChem BioAssay AID1963832.
